Would you mind telling me the reported pIC50 of each entry?
assay: Inhibition of growth of human PC3 cell overexpressing Bcl2
Numbers only, as −log10 of the molar value.

Please review the following examples before continuing.
In [3]: df
Out[3]:
                                 smiles_str  result_number
0  O=C(Nc1ccc(S(=O)(=O)c2ccccc2)cc1)c1cc(Cc2ccccc2)c(O)c(O)c1O           5.40
1  O=C(Nc1ccccc1)c1cc(Cc2ccccc2)c(O)c(O)c1O           5.30
2  CC(C)c1ccccc1Cc1cc(C(=O)Nc2ccc(S(=O)(=O)c3ccccc3C(C)(C)C)cc2)c(O)c(O)c1O           6.70

Prompt line: Give recorded pIC50. CC(C)c1cc(C(=O)Nc2ccccc2)c(O)c(O)c1O
Response line: 5.15
